System: CCRF-CEM leukemia
Assay: NCI-60 one-dose screen, 48 h (100 = growth as untreated, 0 = no growth, -100 = all killed)
Settings: 10 µM unless noted
Protocol: Growth inhibition of the CCRF-CEM human tumor cell line is measured as a screen for anti-cancer activity. Cells are grown in 96 well plates and exposed to the test compound for 48 hours. Compounds are tested at a single concentration, which is 10^-5 M for most compounds. The reported endpoint is percent growth (GI% or GIPRCNT), where numbers from 0 - 100% represent growth inhibition, and numbers from -100% - 0 represent cell death. For example, a value of 40 represents 60% growth inhibition. […]
About 83,000 compounds went through this panel and 20% of them were active in at least one assay; those are over-represented in the sample as a whole.
Reported values of growth for individual entries
Quantity measured: growth (%)

{"Smiles repr": "COc1ccc(-n2c(C)nc3cc(OC)c(OC)cc3c2=O)cc1OC", "Study system": "CCRF-CEM leukemia", "Quantity measured": "growth", "Value observed": 98.1}
{"Smiles repr": "CC(=O)O[C@H](C[C@H](C(C)C)N(C)C(=O)[C@@H](NC(=O)[C@H]1CCCCN1C)C(C)(C)C)c1nc(C(=O)N[C@@H](Cc2ccccc2)C[C@H](C)C(=O)O)cs1", "Study system": "CCRF-CEM leukemia", "Quantity measured": "growth", "Value observed": 1.05}
{"Smiles repr": "CNC(=O)Oc1ccc(C(C)(C)C)cc1OC(=O)NC", "Study system": "CCRF-CEM leukemia", "Quantity measured": "growth", "Value observed": 96.6}
{"Smiles repr": "C/C(=C\\c1ccn(-c2ccc(N)cc2C(F)(F)F)n1)[C@@H]1C[C@@H]2O[C@]2(C)CCC[C@H](C)[C@H](O)[C@@H](C)C(=O)C(C)(C)[C@@H](O)CC(=O)O1", "Study system": "CCRF-CEM leukemia", "Quantity measured": "growth", "Value observed": 16.3}
{"Smiles repr": "Clc1cc(N2CC2)nc(N2CC2)n1", "Study system": "CCRF-CEM leukemia", "Quantity measured": "growth", "Value observed": 54.8}
{"Smiles repr": "C=CC[Se]C(=O)c1ccccc1OC(C)=O", "Study system": "CCRF-CEM leukemia", "Quantity measured": "growth", "Value observed": 5.37}
{"Smiles repr": "CC(C)(N)Cc1ccccc1", "Study system": "CCRF-CEM leukemia", "Quantity measured": "growth", "Value observed": 100}
{"Smiles repr": "C=CCCCCCCCCC(=O)[O-].C=CCCCCCCCCC(=O)[O-].[Zn+2]", "Study system": "CCRF-CEM leukemia", "Quantity measured": "growth", "Value observed": 104}
{"Smiles repr": "CCOC(=O)N[C@H]1CCc2c(Br)c(OC)c(OC)c(OC)c2-c2ccc(SC)c(=O)cc21", "Study system": "CCRF-CEM leukemia", "Quantity measured": "growth", "Value observed": 1.82}
